# target: Transitional endoplasmic reticulum ATPase (Homo sapiens) (UniProt P55072)
# Sequence (P55072 whole entry, looked up): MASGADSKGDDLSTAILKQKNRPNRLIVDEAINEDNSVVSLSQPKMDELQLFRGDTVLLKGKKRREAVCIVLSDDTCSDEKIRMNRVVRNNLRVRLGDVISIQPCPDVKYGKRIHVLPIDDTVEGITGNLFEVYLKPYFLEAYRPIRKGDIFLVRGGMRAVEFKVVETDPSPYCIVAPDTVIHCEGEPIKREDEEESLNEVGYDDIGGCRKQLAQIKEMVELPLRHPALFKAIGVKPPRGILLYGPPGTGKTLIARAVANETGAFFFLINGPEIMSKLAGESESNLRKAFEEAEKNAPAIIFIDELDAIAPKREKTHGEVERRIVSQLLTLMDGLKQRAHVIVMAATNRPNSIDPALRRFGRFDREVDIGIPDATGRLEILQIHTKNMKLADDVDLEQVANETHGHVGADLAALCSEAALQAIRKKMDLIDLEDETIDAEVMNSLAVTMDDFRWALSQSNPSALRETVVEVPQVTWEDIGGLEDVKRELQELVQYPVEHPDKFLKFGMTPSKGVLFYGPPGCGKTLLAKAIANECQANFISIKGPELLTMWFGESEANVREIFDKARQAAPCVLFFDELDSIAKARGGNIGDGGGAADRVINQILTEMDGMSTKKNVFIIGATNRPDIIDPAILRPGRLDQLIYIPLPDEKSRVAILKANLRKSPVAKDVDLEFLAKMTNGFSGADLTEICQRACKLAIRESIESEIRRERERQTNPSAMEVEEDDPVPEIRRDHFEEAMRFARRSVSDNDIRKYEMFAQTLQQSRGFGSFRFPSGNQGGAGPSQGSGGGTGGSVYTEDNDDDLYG
# method summary: p97 ATP hydrolysis blockers – biochemical, primary screen (AID 1481);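 note: 0% = DMSO vehicle and 100% = wells lacking enzyme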
# particulars: recombinant p97 ATPase, Kinase-Glo ATP luminescence, 3 h; at 8 µM
The campaign covered roughly 220,000 compounds. About 920 (0.42%) were called active. Cut-off read from the data, not from the text of the source: active = inhibition above about 15%; inactive = the rest. The sample holds actives, similar compounds and a random draw of the others, so the mix is not that of the screen.
The reply should name one outcome from active, inactive

Inquiry: # lookup: test call for Cc1ccc(C(C[N+](=O)[O-])c2c(C)cc3ccccn23)cc1 (stereo not given)
Reply text: inactive

Inquiry: Per the records of this test, what outcome belongs to Cc1cc(C)c2cc(CN(Cc3cccs3)Cc3nnnn3CC3CCCO3)c(=O)[nH]c2c1 (stereo not given) ?
Reply text: inactive

Inquiry: Field: outcome | Entry: Oc1c(Cl)cc(Cl)c(Cl)c1Cc1c(O)c(Cl)cc(Cl)c1Cl
Reply text: active

Inquiry: In this assay, the call recorded for CCOC(=O)C(C)n1cnc2sc(C)c(C)c2c1=O (stereo not given) was what?
Reply text: inactive

Inquiry: Tell me the recorded outcome of this test for C=CCNCCCCOc1ccccc1 .
Reply text: inactive

Inquiry: How did this test come out for C=CCc1cccc2cc(C(=O)NC3CCCC3)c(=O)oc12 ?
Reply text: inactive

Inquiry: I'd appreciate the recorded outcome for CC(NC(=S)Nc1ccc(S(N)(=O)=O)cc1)c1ccc2c(c1)OCO2 (stereo not given) from this test.
Reply text: inactive

Inquiry: For N=c1c2c3c(sc2ncn1N)CCCC3 , what call appears in the results of this test?
Reply text: inactive

Inquiry: So what was the verdict on Cc1cc(C)c2cc(CN(Cc3nnnn3Cc3ccc(F)cc3)C3CCCC3)c(=O)[nH]c2c1 in this test?
Reply text: active

Inquiry: Status in this test for Cc1nn(Cc2ccccc2)c2c1C(c1ccccc1)C(C#N)=C(N)O2 (stereo not given) ?
Reply text: inactive

----------
# target: Transitional endoplasmic reticulum ATPase (Homo sapiens)
# method summary: p97 ATP hydrolysis blockers – biochemical, primary screen (AID 1481);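 note: 0% = DMSO vehicle and 100% = wells lacking enzyme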
# particulars: recombinant p97 ATPase, Kinase-Glo ATP luminescence, 3 h; at 8 µM; hits give high values
Among all 220,000 compounds or so, about 920 (0.42%) were called active. The sample as a whole holds a higher share of actives than the screen did.
property: inhibition

Inquiry: Reported inhibition, molecule Oc1ccc(N=Cc2c(O)ccc3ccccc23)cc1 : ____
Reply text: 9.71% (inactive)

Inquiry: GET /values?readout=inhibition&item= CCOc1cc(-c2cc(-c3ccc(OC)cc3)nc(N)c2C#N)ccc1O
Reply text: 2.46% (inactive)

Inquiry: Reported inhibition, molecule Cc1cc(C)c(NC(=O)CN2C(=O)NC(Cc3ccccc3)C2=O)c(C)c1 (centres undefined) : ____
Reply text: -0.65% (inactive)

Inquiry: I have this molecule here, Oc1ccc2ccccc2c1C=Nc1ccccc1 , and I need its recorded inhibition.
Reply text: 4.59% (inactive)

----------
# target: Transitional endoplasmic reticulum ATPase (Homo sapiens) (UniProt P55072)
# method summary: p97 ATP hydrolysis blockers – biochemical, primary screen (AID 1481);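 note: 0% = DMSO vehicle and 100% = wells lacking enzyme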
# particulars: recombinant p97 ATPase, Kinase-Glo ATP luminescence, 3 h; at 8 µM
The whole screen tested about 220,000 compounds, of which about 920 (0.42%) were called active. Rule as the data show it: active = inhibition above about 15%; inactive = the rest. The sample holds actives, similar compounds and a random draw of the others, so the mix is not that of the screen.
Please state which outcome applies, choosing from true (active), false (inactive)

Inquiry: Which outcome was entered for the compound C/C(CC(=O)Nc1ccc(Cl)cc1)=N\NC(=O)C(=O)NCCO in this test?
Reply text: false

Inquiry: Recorded test call requested for N#CC1=C(N)Oc2[nH]c(=S)[nH]c(=O)c2C12C(=O)Nc1ccccc12 (stereo unspecified)
Reply text: true

Inquiry: What did this assay record as the result for COc1ccc(/C=N/N=C2/C(=O)Nc3ccccc32)cc1O ?
Reply text: false

Inquiry: Outcome? Brc1ccc(-c2csc(N/N=C/c3cccnc3)n2)cc1
Reply text: false

Inquiry: Assay result, entry CS(=O)(=O)N1CCC(C(=O)N2CCN(c3ccccc3)CC2)CC1 — outcome?
Reply text: false

Inquiry: Please state the recorded outcome for this compound: CCOc1nc(OCC)nc(-n2cc(-c3ccccc3)nn2)n1
Reply text: true

Inquiry: Record lookup: outcome of this test for CCN1C(=O)/C(=c2\s/c(=C3\Sc4ccccc4N3C)c(=O)n2C)N(C)C1=S ?
Reply text: false

Inquiry: Record request — test call for COc1ccccc1CNC(=O)Cn1c(=O)oc2cc(Cl)ccc21
Reply text: false

Inquiry: Lab log entry: Cc1nn(-c2ccccc2)c2c1C(c1ccc(F)cc1)C(C#N)=C(N)O2 (stereo unspecified) — outcome as called in the assay?
Reply text: false

Inquiry: What outcome does the record of this test show for CN1C(=O)C(CC(=O)Nc2ccccc2)S/C1=N/c1nccs1 (stereo unspecified) ?
Reply text: false

Inquiry: Hi, do you know how O=C(NCCc1ccccc1)Oc1ccc(Cl)cc1 came out in this test?
Reply text: false

Inquiry: // return assay outcome for O=C(Nc1nnc(CCN2CCCCC2)s1)c1cccc(Cl)c1
Reply text: false

Inquiry: Recorded test call requested for C/C(CCc1ccccc1)=N\NC(=O)c1ccc(CN2CCOCC2)cc1
Reply text: false

Inquiry: Query: recorded result category for Cn1c(SCC(=O)C(C)(C)C)nnc1-c1ccccn1 in this test
Reply text: false

Inquiry: Given Nc1ccc2nc3c(=O)[nH]c(=S)[nH]c3nc2c1 , state the outcome it received in this test.
Reply text: true

Inquiry: How did this test come out for Cn1cccc1/C=N/NC(=O)CNc1cccc2ccccc12 ?
Reply text: false

----------
# target: Transitional endoplasmic reticulum ATPase (Homo sapiens) (UniProt P55072)
# method summary: p97 ATP hydrolysis blockers – biochemical, primary screen (AID 1481);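 note: 0% = DMSO vehicle and 100% = wells lacking enzyme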
# particulars: recombinant p97 ATPase, Kinase-Glo ATP luminescence, 3 h; at 8 µM; hits give high values
Hit rate of the full screen: of about 220,000 compounds, about 920 (0.42%) were called active. Shown is part of a subset that was picked to be rich in actives.
I'd be grateful if you could share measured inhibition for these entries.
Lab book: enter the figure in %, no units written.

Inquiry: Request - read-out inhibition | tested on Transitional endoplasmic reticulum ATPase (Homo sapiens) (UniProt P55072) | compound O=C(Nc1ccccc1Cl)/C(Cl)=C(\Cl)S(=O)c1ccccc1 (configuration not stated)
Reply text: 20

Inquiry: Fill in the recorded inhibition for this compound, with Transitional endoplasmic reticulum ATPase (Homo sapiens) (UniProt P55072) as test system: O=C(c1nnc(-c2ccc(Cl)cc2)o1)C1CCCC1
Reply text: -6.78

Inquiry: GET /values?readout=inhibition&system=Transitional endoplasmic reticulum ATPase (Homo sapiens) (UniProt P55072)&item= CCc1ccccc1NC(=O)CN(c1ccc(OC)cc1OC)S(=O)(=O)c1ccccc1[N+](=O)[O-]
Reply text: 0.37

Inquiry: Enter reported inhibition observed with Transitional endoplasmic reticulum ATPase (Homo sapiens) (UniProt P55072) for CC(=O)N1CCc2cc(Br)cc(S(=O)(=O)CCC(=O)Nc3c(C)n(C)n(-c4ccccc4)c3=O)c21
Reply text: 16.1

Inquiry: Test system Transitional endoplasmic reticulum ATPase (Homo sapiens) (UniProt P55072); read-out inhibition; what value for O=C(COc1ccc(/C=N/NS(=O)(=O)c2ccccc2)cc1)NCCc1ccccc1 ?
Reply text: 0.13

Inquiry: Lab note: need inhibition for O=C(Nc1ccccc1Cl)c1ccc2nsnc2c1 on Transitional endoplasmic reticulum ATPase (Homo sapiens) (UniProt P55072), anyone have it?
Reply text: 2.33

Inquiry: Return inhibition measured with Transitional endoplasmic reticulum ATPase (Homo sapiens) (UniProt P55072) given this compound: N=C1C(c2nc3ccccc3s2)=C(O)CN1NC(=O)c1ccc([N+](=O)[O-])cc1
Reply text: 28.3

----------
Please provide measured inhibition for the entries that follow.
# target: Transitional endoplasmic reticulum ATPase (Homo sapiens) (UniProt P55072)
# method summary: p97 ATP hydrolysis blockers – biochemical, primary screen (AID 1481);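 note: 0% = DMSO vehicle and 100% = wells lacking enzyme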
# particulars: recombinant p97 ATPase, Kinase-Glo ATP luminescence, 3 h; at 8 µM; hits give high values
In all, about 220,000 compounds went through this assay and about 920 (0.42%) were called active. The full list was thinned out, with actives kept by preference.
Expressed in %, but write only the number.

Inquiry: // lookup inhibition for COc1ccc(NC(=O)/C(Cl)=C(/Cl)S(=O)Cc2ccc(C)cc2)cn1 (stereo not given)
Reply text: 10.7

Inquiry: Form field: reported inhibition of CCOC(=O)N1CCC(c2cc(=O)n(-c3ccccc3)[nH]2)CC1
Reply text: 23

Inquiry: Fill in the blank: the reported inhibition of C=CCn1c(N)c(S(=O)(=O)c2cccs2)c2nc3ccccc3nc21 is ____.
Reply text: 6.58

Inquiry: Which inhibition reading was recorded for the compound CC(Sc1cccc[n+]1[O-])C(=O)Nc1cccc(S(=O)(=O)N2CCOCC2)c1 (stereo not given) ?
Reply text: 4.59

Inquiry: So what does the record say about inhibition for O=C(CN1CCN(c2ccc(O)cc2)CC1)Nc1cc(S(=O)(=O)N2CCOCC2)ccc1Cl ?
Reply text: 6.43

Inquiry: Would you mind telling me what inhibition value was observed for C#CCOCCOCCOCCNc1nc(N2CCN(C(=O)[C@H](CCCCN)n3cc([C@@H](N)C(C)CC)nn3)CC2)nc(N2CCN(C(=O)[C@H](Cc3ccc(O)cc3)n3cc([C@@H](N)C(C)CC)nn3)CC2)n1 (stereo not given in full) ?
Reply text: 13.3

Inquiry: So what does the record say about inhibition for C=CCn1c(SCc2csc(C)n2)nc2scc(-c3ccc(C)o3)c2c1=O ?
Reply text: 3.29

Inquiry: # query: inhibition of entry COc1ccc(NC(=S)Nc2ccccc2Cl)cn1
Reply text: 2.95

Inquiry: Could you tell me which inhibition is on file for C#CCN1C(=O)C(O)(CC(=O)c2cc(OC)ccc2OC)c2ccccc21 (stereo not given) ?
Reply text: 4.75

Inquiry: Given CCCCN1C(=O)/C(=C(/C#N)C(N)=O)c2ccccc21 , state its recorded inhibition.
Reply text: 1.92

Inquiry: State the recorded inhibition for this entry: C=CCn1c(=S)[nH]c2scc(-c3ccco3)c2c1=O
Reply text: 15.2

Inquiry: Value lookup for inhibition; key = O=S(=O)(Cc1ccccc1)c1nc2ccccc2n1Cc1ccccn1
Reply text: 2.46

Inquiry: Which inhibition is listed for O=C(CCc1ccccc1)Nc1nn[nH]n1 ?
Reply text: -3.71

Inquiry: I'd like to know its inhibition. The compound in question is CCC(C)CN1CCC(CO)(Cc2ccccc2Cl)CC1 (stereo not given)
Reply text: -5.42

Inquiry: Give the measured inhibition of Nc1ccccc1Sc1ccc(C(F)(F)F)cc1[N+](=O)[O-] .
Reply text: -3.21

Inquiry: // lookup inhibition for COc1cccc(NC(=S)NCc2ccco2)c1
Reply text: 3.44

Inquiry: # get_value(readout='inhibition', item= Clc1ccc(C2=CSC3=Nc4cccc5cccc(c45)N23)cc1 )
Reply text: 33

Inquiry: # lookup: inhibition of NC(=O)Cc1ccc2c(c1)[nH]c1ccccc12
Reply text: 2.82

Inquiry: What does the record list as inhibition for C#CCOCCOCCOCCNc1nc(N2CCN(C(=O)C(Cc3ccc(O)cc3)n3cc(C(N)CC(C)C)nn3)CC2)nc(N2CCN(C(=O)C(Cc3ccc(O)cc3)n3cc(C(N)C(C)CC)nn3)CC2)n1 (stereo not given) ?
Reply text: 14.7

Inquiry: Recorded inhibition of C=CCNC(=S)NNC(=O)c1cc(Cl)ccc1OC , please.
Reply text: 2.04

Inquiry: Name the recorded inhibition for CC1(C)CC(N2CCN(C(c3ccccc3)c3ccccc3)CC2)=CC(=[N+]2CCCCC2)C1 .
Reply text: -4.13

Inquiry: Look at this compound and give its reported inhibition. CC(C)(C)c1cnnn1-c1ccc([N+](=O)[O-])cc1
Reply text: 4.98

Inquiry: // returns reported inhibition for input COc1ccccc1C(=O)Nc1nc2nc(-c3ccccc3)cc(=O)n2[nH]1
Reply text: 14.8

Inquiry: Could you share which inhibition value was measured for CCN(c1ccccc1)S(=O)(=O)c1ccc2[nH]c(=O)[nH]c2c1 ?
Reply text: 5.66

Inquiry: For O=[N+]([O-])c1cc(Cl)cc(/C=N/NC(=S)Nc2cc(S(=O)(=O)N3CCOCC3)ccc2Cl)c1O , what is its reported inhibition?
Reply text: 14.6

Every entry's value here was drawn from PubChem BioAssay AID1481.
